Assay: soluble fraction after stress (log2 fold change); higher = more stays soluble; pooled small domains, quantitative proteomics
Conditions: stress: 50 degC
Kind request: treat -0.03 as inclusive, so soluble fraction (log2) at -0.03 or higher is T, anything lower is F.

HMAGRKMMVMANNLSVRKSANSLSEKLADLSRGDTVEYISSTNGWNKVRYKGQIGYVSSYYLKDTGEEVE; F
HMRHTRQRQAVLDALVRSGQALSPQDLLGQAKSAVPSLNLSTVYRQIKGLQDAGQIVRVELPGQPPRFEM; F
HMDNPPDRAEIEQMLKDAGLTPEADAMAALSDLARTLDPGDFRQTLEKITLYKLGDSTPIGLDDIAAGAP; T

Please check the record HMSVTSEIGAKIKYFRKSKHFSLQEMADLLYKSKSTLSKYENGQISIDIETLYAIAKVLGVHVEQLLYSEP and state if its soluble fraction (log2) is at or above -0.03.
F

Threshold query (soluble fraction (log2) >= -0.03) on HMAIELTPRQLDIIELVRKHAPITGEQIAELLGVTRPSIRSDLGLLVMLGYIDAKPKVGYFAGPRM
F

----------
Assay: soluble fraction after stress (log2 fold change); higher = more stays soluble; pooled small domains, quantitative proteomics
Conditions: stress: 50 degC
Documented soluble fraction (log2) across a set of sequences
# print the numeric value only

HMYVPEVPVPDLLGRSEEEAKNLIEDLGLVFKVSKREYSKEYDEGHVMEQSVDEGAKVKENYPVEVVISR; 0.196
HMKNIFDWLKQINYHKQPADSFTEKDWELFNSYMVHRFMSMNREFIEVVNYVQEMPPQEKILIYNIYREF; -1.02
HMDIEVEVPNLVGMSLDEAKSIIQSMGLVVGLTIEDPSAKVSDNSVTKQKPTYQTGVKLRSGDMIDIWYAG; -0.102

Please list soluble fraction (log2) recorded for the sequence HMQTLQNNLKQIRSRVGLTQGELASRAGISRQAYSTLESGNANPSTEVSLRLAEALNERIESLFFLANQ
-0.275

For HMPMIQHFHRMISAALGISEKQIVQTLGLLNDGATIPFISRYRKEVTGGLDEVQIESIKTHYEKLNEIAK , write its soluble fraction (log2).
-1.52

Entry HMRLYTQDVAVLNRDVIQGEVITSDMVTTVNVHKRTVPTGALNLSEIPGNVAKFNIPASIPITASMVTK needs its soluble fraction (log2) filled in; supply it.
0.0171

Write down soluble fraction (log2) measured for item HMVELVKVPALQGETVDEAIADIKDAGLEPGQVRYVESDLPKDTVTYQSVDAGEQVKAGTVINLQASKGP
0.251

Give a short answer stating reported soluble fraction (log2) for HMAKSETAKIKATPYGWLRVRDTPSLNGAEIARVNSGDEYKVLEKETGWIKIKVSDTVEGWVSDAYIELS .
-0.0312

----------
Below, each entry is listed with its recorded soluble fraction (log2).
Assay: soluble fraction after stress (log2 fold change); higher = more stays soluble; pooled small domains, quantitative proteomics
Details: stress: 50 degC

HMNDPFVILGVSKDASQSEILEAYKQKRAYYQERVFDEGDEGAQAARMLTQLDDAYQQAMELSHES; -0.151
HMGSGQVTLPDLEGKSMKEVARILSQLGLHLSPDGHGLAFKQSPAAGTRVPVGSTIKVSFQPL; 0.0366
HMHSPTFYVHVVGQVKVPGVYELEVGSRLFDAVIAAGGFKDDADQASVNLARPLSDGEQIVVLKLGDQ; -0.251
HMSITKDNLSIGTNIRISGFSDIGRIISIPNKGNQVQVQIGSAKMNIKINSIVEIIKEEKDFNKNISN; -0.102
HMGVMNEYEELRDRYLTGQIWKIGDLVEAKGIEGKIIQRGTNYITFNDSQGKVHKAWLHEIKV; 0.184
HMQMPDLTGKPRAEAVTTLAALGFTDVKFLDASAGDEPLDYVADQVVRTSPEAGAALASGQQITIYLAT; 0.101
HMNEFNEVVPDSLEGERLDRLLAFIGNISRSEASNIIKGGEVLINGKVVTRPSFKVTLGNRVEFSIRD; -0.387
HMRSFGTLRRLPSGRYQASYAGPDLRRHAAPTTFETKLDAEGWLRDEHRMIERDEWTAPAARSQLK; 0.214

Return soluble fraction (log2) for the following sequence: HMNNLLEDIKARLMAQAEAGGHIDTETELAEHFGVTRYRIRKELDLLSQMGLLRRQPKNGIEVLTV
-0.106

Answer with reported soluble fraction (log2) of HMGPKALLKIPGLQEVDAELLFKEGYKSISAVASADPEMLKAIPGVDEQKVTEWVTGAEQILSQQVNKGA
0.342

Give soluble fraction (log2) for the following sequence: HMEETGFYIKLQDQEVVIFHNDQVTPYEYTGIREEVLPESELEKLREGFFVEDEKELYSVLENLS
-0.142

Give the measured soluble fraction (log2) for HMRIEDTMDYINKIKEKLKNNGGVITSKEFTRSNIPTIYLTRMVETGELIRIDRGIYINSSG
-0.538
